tested on: Uromyces appendiculatus; assay: In vivo preventive test on Uromyces appendiculatus (bean rust); details: dose 100 ppm; bean plants sprayed 24 h before contamination; grading 11 days after contamination
Reported Eff. % is given for each of the following compounds.
Reply with just the number (in %).

Sample records with Eff. %:
compound | Eff. % (%)
CC1CC2(CCCC2)c2cccc(NC(=O)c3c(C(F)F)nn(C)c3F)c21 (stereo not shown) | 100
CC1CC2(CCCCC2)c2cccc(NC(=O)c3c(C(F)F)nn(C)c3Cl)c21 (stereo not shown) | 99
CC1CCc2c(NC(=O)c3c(C(F)F)nn(C)c3Cl)cccc21 (stereo not shown) | 99

Below: the item to evaluate.
Inquiry: Look at this compound and give its reported Eff. %. CC(C)C1Cc2c(NC(=S)c3c(C(F)F)nn(C)c3Br)cccc2C1(C)C (stereo not shown)
Reply text: 100

###

system: Uromyces appendiculatus; test: In vivo preventive test on Uromyces appendiculatus (bean rust); conditions: dose 500 ppm; bean plants sprayed 24 h before contamination; grading 11 days after contamination
Reported Eff. % is given for each of the following molecules.
Reply with just the number (in %).

molecule | target.or.system | unit.text | Eff. %
CC1c2cccc(NC(=O)c3c(C(F)F)nn(C)c3F)c2CC1(C)C (stereo not shown) [Example 78] | Uromyces appendiculatus | % | 100

Inquiry: Look at this molecule and give its reported Eff. %. Cn1nc(C(F)F)c(C(=O)Nc2cccc3c2CC(C)(C)C3)c1Cl [Example 73]
Reply text: 100

###

Reported Eff. % is given for each of the following compounds.
test system: Puccinia recondita; test: In vivo preventive test on Puccinia recondita (brown rust on wheat); details: dose 500 ppm; wheat plants sprayed 24 h before contamination; grading 12 days after contamination
Reply with just the number (in %).

Sample records with Eff. %:
compound | measured.value
CC1c2cccc(NC(=O)c3c(C(F)F)nn(C)c3F)c2CC1(C)C (stereo not drawn) [Example 78] | 98
Cn1nc(C(F)F)c(C(=O)Nc2cccc3c2CC(C)(C)C3)c1Cl [Example 73] | 100
CC1c2cccc(NC(=O)c3c(C(F)F)nn(C)c3Br)c2CC1(C)C (stereo not drawn) [Example 81] | 98
CC1c2c(NC(=O)c3c(C(F)F)nn(C)c3Cl)cccc2C(C)(C)C1C (stereo not drawn) [Example 85] | 98
CC1c2c(NC(=O)c3c(C(F)F)nn(C)c3F)cccc2C(C)(C)C1C (stereo not drawn) [Example 64] | 100

Below: the item to evaluate.
Inquiry: Look at this compound and give its reported Eff. %. CC1CC(C)c2c(NC(=O)c3c(C(F)F)nn(C)c3Cl)cccc21 (stereo not drawn) [Example 43]
Reply text: 98

###

assay: Measurement of log P values by HPLC on reversed phase columns (EEC directive 79/831 Annex V.A8); format: physicochemical; details: method [a]: LC-MS at pH 2.7, 0.1% formic acid in water / acetonitrile, gradient 10% to 95% acetonitrile
measure: logP

Sample records with logP:
compound | measure | measured.value
CCCON=C1CCc2c(N)cccc21.Cl | logP | 2.26[a]
CCC1(CC)Cc2c(N)cccc2C1C (racemic) | logP | 2.63[a]
CON=C1CC(C)c2c(N)cccc21.Cl (racemic) | logP | 1.76[a]
CC1CC2(CCCCC2)c2cccc(N)c21 (stereo not shown) | logP | 3.35[a]
CC1Cc2c(N)cccc2C1(C)C (stereo not shown) | logP | 1.95[a]
CC1CC(C)c2c(N)cccc21 (stereo not shown) | logP | 1.76[a]
Nc1cccc2c1CC(Cc1ccccc1)C2 (stereo not shown) | logP | 2.54[a]
CON=C1CCc2c(Br)cccc21 | logP | 4.23[a]
CON=C1CCc2c(N)cccc21.Cl | logP | 1.26[a]
CCC1(C)CCc2c(N)cccc21 (racemic) | logP | 1.88[a]

Inquiry: Look at this compound and give its reported logP. CCC1Cc2cccc(N)c2C1 (racemic)
Reply text: 1.76[a]

Inquiry: And the next one, CC(C)C1Cc2c(N)cccc2C1(C)C (stereo not shown) ?
Reply text: 2.8[a]

Inquiry: And the next one, Nc1cccc2c1CCC21CC1 ?
Reply text: 1.37[a]

Inquiry: And the next one, Nc1cccc2c1CC(C1CCCC1)C2 (stereo not shown) ?
Reply text: 2.94[a]

Inquiry: And the next one, CCON=C1CC(C)c2c(N)cccc21.Cl (racemic) ?
Reply text: 2.26[a]

Inquiry: And the next one, CCC1Cc2c(N)cccc2C1(C)C (racemic) ?
Reply text: 2.47[a]

###

Reported logP is given for each of the following molecules.
assay: Measurement of log P values by HPLC on reversed phase columns (EEC directive 79/831 Annex V.A8); assay type: physicochemical; conditions: method marked [a]

Sample records with logP:
molecule | measured.value
Cn1nc(C(F)F)c(C(=O)Nc2cccc3c2C(C)(C)CC3)c1F [Example 100] | 3.31[a]
CC1c2cccc(NC(=O)c3c(C(F)F)nn(C)c3Br)c2CC1(C)C (centres unmarked) [Example 81] | 4.16[a]
CC(C)C1Cc2c(NC(=S)c3c(C(F)F)nn(C)c3Br)cccc2C1(C)C (centres unmarked) [Example 102] | 4.87[a]
CC1CC(C)(C)c2c(Br)ccc(NC(=O)c3c(C(F)F)nn(C)c3F)c21 (centres unmarked) [Example 38] | 4.45[a];

Below: the item to evaluate.
Inquiry: Look at this molecule and give its reported logP. CC1c2cccc(NC(=O)c3c(C(F)F)nn(C)c3F)c2CC1(C)C (centres unmarked) [Example 78]
Reply text: 3.92[a]

###

assay: Measurement of log P values by HPLC on reversed phase columns (EEC directive 79/831 Annex V.A8); type: physicochemical; settings: method marked [a]
measure: logP

Sample records with logP:
compound | logP
CC1Cc2c(NC(=O)c3c(C(F)F)nn(C)c3Cl)cccc2C1C (stereo not drawn) [Example 62] | 3.87[a]
CCCON=C1CCc2c(NC(=O)c3c(C(F)F)nn(C)c3Cl)cccc21 [Example 23] | 3.76[a]
CCC1(CC)CC(C)c2c(NC(=O)c3c(C(F)F)nn(C)c3Cl)cccc21 (stereo not drawn) [Example 112] | 4.82[a]
CCON=C1CCc2c(NC(=O)c3c(C(F)F)nn(C)c3F)cccc21 [Example 27] | 3.06[a]
CC1c2c(NC(=O)c3c(C(F)F)nn(C)c3Cl)cccc2C(C)(C)C1C (stereo not drawn) [Example 85] | 4.2[a]

Inquiry: Look at this compound and give its reported logP. CCON=C1CCc2c(NC(=O)c3c(C(F)F)nn(C)c3Cl)cccc21 [Example 26]
Reply text: 3.27[a]

Inquiry: And the next one, CCON=C1CC(C)c2c(NC(=O)c3c(C(F)F)nn(C)c3F)cccc21 (stereo not drawn) [Example 83] ?
Reply text: 3.18[a]

Inquiry: And the next one, CC(C)C1Cc2cccc(NC(=O)c3c(C(F)F)nn(C)c3Cl)c2C1C (stereo not drawn) [Example 47] ?
Reply text: 4.68[a]

###

test: Measurement of log P values by HPLC on reversed phase columns (EEC directive 79/831 Annex V.A8); format: physicochemical; settings: method marked [a]
Reported logP is given for each of the following compounds.

Sample records with logP:
compound | measured.value
CON=C1CCc2c(NC(=O)c3c(C(F)F)nn(C)c3F)cccc21 | 2.59[a]
CCC1(C)CC(C)c2c(NC(=O)c3c(C(F)F)nn(C)c3F)cccc21 (stereo not shown) | 4.16[a]
CC(C)CC1CC(C)c2c(NC(=O)c3c(C(F)F)nn(C)c3Cl)cccc21 (stereo not shown) [Example 99] | 5.01[a]

Below: the item to evaluate.
Inquiry: Look at this compound and give its reported logP. Cc1ccc(NC(=O)c2c(C(F)F)nn(C)c2F)c2c1C(C)(C)CC2C (stereo not shown)
Reply text: 3.99[a];

###

Reported Eff. % is given for each of the following compounds.
system: Uromyces appendiculatus; assay: In vivo preventive test on Uromyces appendiculatus (bean rust); settings: dose 500 ppm; bean plants sprayed 24 h before contamination; grading 11 days after contamination
Reply with just the number (in %).

compound | Eff. % [%]
CCCON=C1CC(C)c2c(NC(=O)c3c(C(F)F)nn(C)c3F)cccc21 (centres unmarked) | 100

Inquiry: Look at this compound and give its reported Eff. %. CC1c2c(NC(=O)c3c(C(F)F)nn(C)c3F)cccc2C(C)(C)C1C (centres unmarked)
Reply text: 100

Inquiry: And the next one, CC1CCc2cccc(NC(=O)c3c(C(F)F)nn(C)c3Cl)c21 (centres unmarked) ?
Reply text: 100

Inquiry: And the next one, Cn1nc(C(F)F)c(C(=S)Nc2cccc3c2CCC3C(C)(C)C)c1Cl (centres unmarked) ?
Reply text: 100

###

assay: Measurement of log P values by HPLC on reversed phase columns (EEC directive 79/831 Annex V.A8); type: physicochemical; settings: method marked [a]
Reported logP is given for each of the following molecules.

Sample records with logP:
molecule | logP
CCCON=C1CC(C)c2c(NC(=O)c3c(C(F)F)nn(C)c3Cl)cccc21 (stereo not shown) [Example 84] | 3.92[a]
CC1CC2(CCCCC2)c2cccc(NC(=S)c3c(C(F)F)nn(C)c3F)c21 (stereo not shown) [Example 104] | 4.88[a]
CC1CC(CC(C)(C)C)c2cccc(NC(=O)c3c(C(F)F)nn(C)c3Cl)c21 (stereo not shown) [Example 69] | 5.22[a]

Inquiry: Look at this molecule and give its reported logP. Cn1nc(C(F)F)c(C(=O)Nc2cccc3c2CC(C2CCCC2)C3)c1Cl (stereo not shown) [Example 57]
Reply text: 5.03[a]

Inquiry: And the next one, CCC1(CC)Cc2c(NC(=O)c3c(C(F)F)nn(C)c3F)cccc2C1C (stereo not shown) [Example 101] ?
Reply text: 4.67[a]

Inquiry: And the next one, CC1CC2(CCCC2)c2cccc(NC(=O)c3c(C(F)F)nn(C)c3F)c21 (stereo not shown) [Example 103] ?
Reply text: 4.39[a]

Inquiry: And the next one, Cn1nc(C(F)F)c(C(=O)Nc2cccc3c2CC(Cc2ccccc2)C3)c1Cl (stereo not shown) [Example 39] ?
Reply text: 4.41[a]

Inquiry: And the next one, CC1c2cccc(NC(=O)c3c(C(F)F)nn(C)c3Cl)c2CC1(C)C (stereo not shown) [Example 77] ?
Reply text: 4.19[a]

Inquiry: And the next one, CC1Cc2c(NC(=O)c3c(C(F)F)nn(C)c3Cl)cccc2C1(C)C (stereo not shown) [Example 46] ?
Reply text: 4.19[a]

Inquiry: And the next one, CCC1(C)CCc2c(NC(=O)c3c(C(F)F)nn(C)c3Cl)cccc21 (single isomer, unassigned) [Example 52] ?
Reply text: 4.31[a]

Inquiry: And the next one, CC1CC2(CC2(Cl)Cl)c2cccc(NC(=O)c3c(C(F)F)nn(C)c3F)c21 (stereo not shown) [Example 1] ?
Reply text: 3.68[a]

Inquiry: And the next one, CCCON=C1CCc2c(NC(=O)c3c(C(F)F)nn(C)c3F)cccc21 [Example 28] ?
Reply text: 3.52[a]

Inquiry: And the next one, CCC1Cc2c(NC(=O)c3c(C(F)F)nn(C)c3F)cccc2C1(C)C (stereo not shown) [Example 86] ?
Reply text: 4.34[a]

Inquiry: And the next one, CCC1Cc2c(NC(=S)c3c(C(F)F)nn(C)c3Cl)cccc2C1(C)C (stereo not shown) [Example 105] ?
Reply text: 4.58[a]

Inquiry: And the next one, CC1CC2(CCCC2)c2cccc(NC(=O)c3c(C(F)F)nn(C)c3Cl)c21 (stereo not shown) [Example 111] ?
Reply text: 4.64[a]

Inquiry: And the next one, CC1CC(C)(C)c2c(F)ccc(NC(=O)c3c(C(F)F)nn(C)c3Cl)c21 (stereo not shown) [Example 37] ?
Reply text: 4.11[a]

Inquiry: And the next one, CC1Cc2cccc(NC(=O)c3c(C(F)F)nn(C)c3Cl)c2C1 (stereo not shown) [Example 8] ?
Reply text: 3.67[a]

Inquiry: And the next one, CC1CC2(CC2)c2cccc(NC(=O)c3c(C(F)F)nn(C)c3Br)c21 (stereo not shown) [Example 76] ?
Reply text: 3.83[a]

Inquiry: And the next one, CC1CC(CC(C)(C)C)c2cccc(NC(=O)c3c(C(F)F)nn(C)c3F)c21 (stereo not shown) [Example 70] ?
Reply text: 4.92[a]

Inquiry: And the next one, CCCCON=C1CCc2c(NC(=O)c3c(C(F)F)nn(C)c3F)cccc21 [Example 24] ?
Reply text: 3.96[a]

Inquiry: And the next one, Cn1nc(C(F)F)c(C(=O)Nc2cccc3c2CCC32CC2)c1Cl [Example 14] ?
Reply text: 3.58[a]

Inquiry: And the next one, CON=C1CC(C)c2c(NC(=O)c3c(C(F)F)nn(C)c3Cl)cccc21 (stereo not shown) [Example 88] ?
Reply text: 2.98[a]
